- Tested on: Hippocampal Cultures
- assay text: Neuroprotection from hydrogen peroxide (oxidative stress), propidium iodide assay
- Assay type: cell-based
- condition notes: Rattus norvegicus, 10 μM Hydrogen Peroxide, read-out: NP from HP PI EC50
Catalogue of log10(EC50) readings, one per entry.
Lab note - EC50 converted to log10 from values in µM.

Reference set (6 entries):
compound="NS(=O)(=O)NCC(O)c1ccccc1F (stereo in doubt) [Example 10]" experimental_value=-1.00
compound="NS(=O)(=O)NCC(O)c1ccccc1F (centres unmarked) [Example 6]" experimental_value=-2.00
compound="NS(=O)(=O)NCC(O)c1cc2ccccc2s1 (centres unmarked)" experimental_value=1.48
compound="CC(O)(CNS(N)(=O)=O)c1ccccc1Cl (centres unmarked)" experimental_value=-1.00
compound="NS(=O)(=O)NCC(O)c1cccc(Cl)c1 (centres unmarked)" experimental_value=2.00
compound="NS(=O)(=O)NCC(O)c1ccccc1F (stereo in doubt) [Example 11]" experimental_value=2.48

Reported log10(EC50) for NS(=O)(=O)NCC(O)c1ccsc1 (centres unmarked) : what is it?
1.48

----------
Listing of entries alongside the reported log10(EC50).
- Tested on: Hippocampal Cultures
- assay text: Neuroprotection from hydrogen peroxide (oxidative stress), CFDA assay
- Assay type: cell-based
- condition notes: Rattus norvegicus, 10 μM Hydrogen Peroxide, read-out: NP from HP CFDA EC50
log10 EC50, µM

Solved entries:
compound="NS(=O)(=O)NC[C@@H](O)c1ccccc1Cl [Example 12]" experimental_value=1.48
compound="NS(=O)(=O)NCC(O)c1cc2ccccc2s1 (centres unmarked) [Example 4]" experimental_value=2.00
compound="NS(=O)(=O)NCC(O)c1ccccc1F (centres unmarked) [Example 6]" experimental_value=1.00
compound="NS(=O)(=O)NCC(O)c1ccsc1 (centres unmarked) [Example 3]" experimental_value=1.48
compound="NS(=O)(=O)NCC(O)c1ccccc1F (stereo in doubt) [Example 10]" experimental_value=0.00

What value of log10(EC50) has been recorded for this entry: CC(O)(CNS(N)(=O)=O)c1ccccc1Cl (centres unmarked) [Example 8]
2.00

State the recorded log10(EC50) for this entry: NS(=O)(=O)NC[C@H](O)c1ccccc1Cl [Example 13]
2.48

# lookup: log10(EC50) of NS(=O)(=O)NCC(O)c1ccccc1F (stereo in doubt) [Example 11]
2.48

Would you mind telling me what log10(EC50) value was observed for NS(=O)(=O)NCC(O)c1cccc(Cl)c1 (centres unmarked) [Example 2] ?
2.00
